The reported measurements were obtained from paper PMC8124228.

Overview of reported pIC50 across a group of molecules:
tested on: non-malignant CHO-K1 cell line; assay: Sulforhodamine B (SRB) cytotoxicity assay, non-malignant cells; assay type: cell-based; conditions: Cricetulus griseus, 48 h, mean ± SE
Just so you know, pIC50 here is -log10 of the concentration in molar units; reply with that number alone.

| Smiles data | pIC50 |
| --- | --- |
| COc1cc(/C=C/c2ccc(C(=O)/C=C/c3ccc(O)c(OC)c3)cc2)cc(OC)c1 | 4.64 |

Value of pIC50 reported for the molecule `Oc1ccc(/C=C/c2cc(O)cc(O)c2)cc1` is 4.19

`COc1cc(/C=C/C(=O)c2ccc(/C=C/c3cc(OC)c(OC)c(OC)c3)cc2)ccc1O` has a reported pIC50 of 4.53

----------
# melting point annotations

Examples with answers:
| Smiles data | melting point |
| --- | --- |
| COc1cc(/C=C/C(=O)c2ccc(/C=C/c3c(OC)cccc3OC)cc2)ccc1O | 87 to 90 °C |
| COc1cc(/C=C/C(=O)c2ccc(/C=C/c3ccc([N+](=O)[O-])cc3)cc2)ccc1O | 227 to 230 °C |
| COc1cc(/C=C/C(=O)c2ccc(/C=C/c3ccc(O)cc3)cc2)ccc1O | 119 to 120 °C |

Next up:
According to the records, this compound `COc1ccc(OC)c(/C=C/c2ccc(C(=O)/C=C/c3ccc(O)c(OC)c3)cc2)c1` displays melting point of 47 to 51 °C

----------
system: SW620 cells (metastatic derivative of SW480); assay: Sulforhodamine B (SRB) cytotoxicity assay, SW620; assay type: cell-based, human; settings: 24 h; IC50 CHO-K1 / IC50 SW620
Reported property: SI (selectivity index)
API note: the answer field is a bare number with no unit suffix.

response.value for `COc1cc(/C=C/c2ccc(C(=O)/C=C/c3ccc(O)c(OC)c3)cc2)cc(OC)c1` (field: SI (selectivity index)) = 1.60

Kindly note the recorded SI (selectivity index) for O=c1[nH]cc(F)c(=O)[nH]1 [Hybrid 5-FU, 5-fluorouracil, reference compound] , which is 0.59

The value of SI (selectivity index) measured for the compound `COc1cc(/C=C/C(=O)c2ccc(/C=C/c3ccc(O)cc3)cc2)ccc1O` turned out to be 0.74

----------
tested on: SW480 human colon adenocarcinoma cells; assay: Sulforhodamine B (SRB) cytotoxicity assay, SW480; assay type: cell-based; conditions: Homo sapiens, SW480, 24 h, 24 h, SRB, mean ± SE
Cut-off 50 µM on IC50: below means Criterion met, at or above means Criterion not met.

| Smiles data | Study target | Label value |
| --- | --- | --- |
| COc1ccc(OC)c(/C=C/c2ccc(C(=O)/C=C/c3ccc(O)c(OC)c3)cc2)c1 | SW480 human colon adenocarcinoma cells | Criterion not met |

As a next step, examine the compound that follows.
Decide: IC50 of `COc1cc(/C=C/C(=O)c2ccc(/C=C/c3c(OC)cccc3OC)cc2)ccc1O` strictly below 50 µM?
Criterion met

----------
tested on: non-malignant CHO-K1 cell line; test: Sulforhodamine B (SRB) cytotoxicity assay, non-malignant cells; assay type: cell-based; settings: Cricetulus griseus, 24 h, mean ± SE
Recorded pIC50, one value per entry.
Please treat pIC50 as minus the base-10 logarithm of the molar concentration.

Please review the entries below; each comes with its answer.
| Compound | Study target | pIC50 |
| --- | --- | --- |
| COc1ccc(OC)c(/C=C/c2ccc(C(=O)/C=C/c3ccc(O)c(OC)c3)cc2)c1 [Hybrid 3f] | non-malignant CHO-K1 cell line | 3.95 |
| COc1cc(/C=C/C(=O)c2ccc(/C=C/c3ccc(O)cc3)cc2)ccc1O [Hybrid 3a] | non-malignant CHO-K1 cell line | 3.91 |
| COc1cc(/C=C/C(=O)c2ccc(/C=C/c3ccc(O)c(OC)c3)cc2)ccc1O [Hybrid 3j] | non-malignant CHO-K1 cell line | 4.38 |

// sample COc1cc(/C=C/C(=O)c2ccc(/C=C/c3cc(OC)c(OC)c(OC)c3)cc2)ccc1O [Hybrid 3k] , its pIC50 was 4.13

Sample Oc1ccc(/C=C/c2cc(O)cc(O)c2)cc1 [Resveratrol] ; pIC50 observed: 3.93

----------
system: non-malignant CHO-K1 cell line; assay: Sulforhodamine B (SRB) cytotoxicity assay, non-malignant cells; assay type: cell-based; conditions: Cricetulus griseus, 48 h, mean ± SE
Hi! Just check whether IC50 is below 30 µM. Below gives 1, equal or above gives -1.

Here are 4 compounds together with their reported answers.
| Smiles data | Label value |
| --- | --- |
| COc1cc(/C=C/C(=O)c2ccc(/C=C/c3cc(OC)c(O)c(OC)c3)cc2)ccc1O | 1 |
| COc1cc(/C=C/C(=O)c2ccc(/C=C/c3ccc(O)cc3)cc2)ccc1O | -1 |
| COc1cc(/C=C/C(=O)c2ccc(/C=C/c3c(OC)cccc3OC)cc2)ccc1O | -1 |
| COc1ccc(/C=C/c2ccc(C(=O)/C=C/c3ccc(O)c(OC)c3)cc2)c(OC)c1 | -1 |

Take the compound `COc1cc(/C=C/C(=O)c2ccc(/C=C/c3ccc(O)c(OC)c3)cc2)ccc1O` and say whether its IC50 is less than 30 µM.
1

Dear reviewer, please state whether `COc1cc(/C=C/C(=O)c2ccc(/C=C/c3ccc(OC)c(OC)c3)cc2)ccc1O` has IC50 strictly beneath 30 µM.
1

In plain terms, does `COc1cc(/C=C/C(=O)c2ccc(/C=C/c3cccc(OC)c3OC)cc2)ccc1O` come in under 30 µM for IC50?
1

Is 30 µM strictly greater than the compound's reported IC50? compound: `COc1ccc(OC)c(/C=C/c2ccc(C(=O)/C=C/c3ccc(O)c(OC)c3)cc2)c1`
1

----------
test system: SW620 cells (metastatic derivative of SW480); assay: Sulforhodamine B (SRB) cytotoxicity assay, SW620; type: cell-based, human; conditions: Homo sapiens, SW-620; 48 h, SRB, mean ± SE
Reported property: log10(IC50) (log10 of the value in µM)
# values: log10(IC50), units µM

Solved cases below.
| Smiles data | Study target | Reported property | Number |
| --- | --- | --- | --- |
| COc1cc(/C=C/C(=O)c2ccc(/C=C/c3cc(OC)c(OC)c(OC)c3)cc2)ccc1O | SW620 cells (metastatic derivative of SW480) | log10(IC50) | 1.07 |
| COc1cc(/C=C/C(=O)c2ccc(/C=C/c3ccc(O)c(OC)c3)cc2)ccc1O | SW620 cells (metastatic derivative of SW480) | log10(IC50) | 1.46 |
| COc1ccc(OC)c(/C=C/c2ccc(C(=O)/C=C/c3ccc(O)c(OC)c3)cc2)c1 | SW620 cells (metastatic derivative of SW480) | log10(IC50) | 1.44 |
| COc1cc(/C=C/C(=O)c2ccc(/C=C/c3c(OC)cccc3OC)cc2)ccc1O | SW620 cells (metastatic derivative of SW480) | log10(IC50) | 1.44 |
| COc1cc(/C=C/C(=O)c2ccc(/C=C/c3ccc(OC)c(OC)c3)cc2)ccc1O | SW620 cells (metastatic derivative of SW480) | log10(IC50) | 1.47 |
| COc1cc(/C=C/c2ccc(C(=O)/C=C/c3ccc(O)c(OC)c3)cc2)cc(OC)c1 | SW620 cells (metastatic derivative of SW480) | log10(IC50) | 1.33 |
| COc1cc(/C=C/C(=O)c2ccc(/C=C/c3cc(OC)c(O)c(OC)c3)cc2)ccc1O | SW620 cells (metastatic derivative of SW480) | log10(IC50) | 1.47 |
| COc1cc(/C=C/C(=O)c2ccc(/C=C/c3ccc(O)cc3)cc2)ccc1O | SW620 cells (metastatic derivative of SW480) | log10(IC50) | 1.31 |
| Oc1ccc(/C=C/c2cc(O)cc(O)c2)cc1 | SW620 cells (metastatic derivative of SW480) | log10(IC50) | 2.16 |
| COc1cc(/C=C/C(=O)c2ccc(/C=C/c3cccc(OC)c3OC)cc2)ccc1O | SW620 cells (metastatic derivative of SW480) | log10(IC50) | 1.42 |

As a next step, examine the compound that follows.
Consider `COc1ccc(/C=C/c2ccc(C(=O)/C=C/c3ccc(O)c(OC)c3)cc2)c(OC)c1` . Its measured log10(IC50) is 1.31

----------
tested on: SW620 cells (metastatic derivative of SW480); experiment: Sulforhodamine B (SRB) cytotoxicity assay, SW620; assay type: cell-based, human; conditions: 24 h; IC50 CHO-K1 / IC50 SW620
This section presents compounds with their documented SI (selectivity index) values.
// no unit, no text: just the number

Examples with answers:
| Compound | Study target | SI (selectivity index) |
| --- | --- | --- |
| COc1cc(/C=C/C(=O)c2ccc(/C=C/c3cc(OC)c(OC)c(OC)c3)cc2)ccc1O [Hybrid 3k] | SW620 cells (metastatic derivative of SW480) | 3.65 |
| COc1cc(/C=C/C(=O)c2ccc(/C=C/c3ccc(O)c(OC)c3)cc2)ccc1O [Hybrid 3j] | SW620 cells (metastatic derivative of SW480) | 1.50 |
| COc1ccc(/C=C/c2ccc(C(=O)/C=C/c3ccc(O)c(OC)c3)cc2)c(OC)c1 [Hybrid 3e] | SW620 cells (metastatic derivative of SW480) | 1.81 |
| COc1cc(/C=C/C(=O)CC(=O)/C=C/c2ccc(O)c(OC)c2)ccc1O [Curcumin] | SW620 cells (metastatic derivative of SW480) | 0.12 |
| COc1ccc(OC)c(/C=C/c2ccc(C(=O)/C=C/c3ccc(O)c(OC)c3)cc2)c1 [Hybrid 3f] | SW620 cells (metastatic derivative of SW480) | 2.36 |

Record COc1cc(/C=C/C(=O)c2ccc(/C=C/c3ccc(OC)c(OC)c3)cc2)ccc1O [Hybrid 3i] / SW620 cells (metastatic derivative of SW480), SI (selectivity index) recorded as 1.32

Tested on SW620 cells (metastatic derivative of SW480), the item COc1cc(/C=C/C(=O)c2ccc(/C=C/c3cc(OC)c(O)c(OC)c3)cc2)ccc1O [Hybrid 3l] showed SI (selectivity index) equal to 2.63

Case COc1cc(/C=C/C(=O)c2ccc(/C=C/c3c(OC)cccc3OC)cc2)ccc1O [Hybrid 3g] , SW620 cells (metastatic derivative of SW480), SI (selectivity index) recorded as 2.82

Oc1ccc(/C=C/c2cc(O)cc(O)c2)cc1 [Resveratrol] on SW620 cells (metastatic derivative of SW480) gives SI (selectivity index) = 0.22

GET /values?item= COc1cc(/C=C/C(=O)c2ccc(/C=C/c3cccc(OC)c3OC)cc2)ccc1O [Hybrid 3d] &system= SW620 cells (metastatic derivative of SW480) returns SI (selectivity index): 0.44
